Study target: T1, 4H1629-bH
T1 chain: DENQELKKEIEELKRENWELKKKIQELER
Assay comment: two-hybrid library CCNG1;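 note: natural log of median RNA to DNA barcode read ratio; higher means stronger binding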

Binder: DENQELEKKIEELKRKNWELEKEIQELER [4H1393-bH]
interaction score: -0.557

Binder: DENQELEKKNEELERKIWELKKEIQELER [4H1449-bH]
interaction score: -0.891

Binder: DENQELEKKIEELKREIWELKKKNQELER [4H1359-bH]
interaction score: -0.6

Binder: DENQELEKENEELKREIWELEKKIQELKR [4H1222-bH]
interaction score: -0.0755

Binder: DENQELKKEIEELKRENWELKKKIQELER [4H1629-bH]
interaction score: -0.954

Values compiled from paper PMC10397247.
